koff listing for selected binders.
Molecular target: T1, recombinant human CD40-his (Acro biosystems, Cat. No. CD0-H5228) (human, UniProt P25942 21-193)
T1 construct: Bought protein; also called human CD40-his protein; not shown: His tag
T1 sequence (P25942 21-193 limits assumed): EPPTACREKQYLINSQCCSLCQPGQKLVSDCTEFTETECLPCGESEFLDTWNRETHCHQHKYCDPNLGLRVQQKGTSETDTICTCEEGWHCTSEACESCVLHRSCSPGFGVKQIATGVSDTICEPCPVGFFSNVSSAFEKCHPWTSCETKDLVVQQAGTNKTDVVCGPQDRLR
Test: BLI (Octet RED 96), antibody captured from cell supernatant on AHC sensor, human CD40-his as analyte, 1:1 fit
Numbers only here, please. The scale is s⁻¹.

# annotated cases, reported koff shown
binder="humanized antibody huC1H1-V4 (antibody, human IgG2, kappa, V domains shown, Human IgG2 / kappa; Tested as cell supernatant in the Octet assay) VH: EVQLVESGGGLVKPGGSLRLSCAASGFTFSNYGISWVRQAPGKGLEWVSSISSGGDNTYYPDNVKGRFTISRDNAKNSLYLQMNSLRAEDTAVYYCARAGEKAMDYWGQGTLVTVSS VL: EIVLTQSPATLSLSPGERATLSCRASQTINNNLHWYQQKPGQAPRLLIYYASQSISGIPARFSGSGSGTDFTLTISSLEPEDFAVYYCQQFSSWPLTFGGGTKVEIKR" resultvalue=0.00367
binder="humanized antibody huC1H1-V3 (antibody, human IgG2, kappa, V domains shown, Human IgG2 / kappa; Tested as cell supernatant in the Octet assay) VH: EVQLVESGGGLVKPGGSLRLSCAASGFTFSNYGISWVRQAPGKGLEWVASISSGGDNTYYPDNVKGRFTISRDNAKNSLYLQMNSLRAEDTAVYYCARAGEKAMDYWGQGTLVTVSS VL: EIVLTQSPATLSLSPGERATLSCRASQTINNNLHWYQQKPGQAPRLLIYYASQSISGIPARFSGSGSGTDFTLTISSLEPEDFAVYYCQQFSSWPLTFGGGTKVEIKR" resultvalue=0.00283
binder="humanized antibody huC1H1-V2 (antibody, human IgG2, kappa, V domains shown, Human IgG2 / kappa) VH: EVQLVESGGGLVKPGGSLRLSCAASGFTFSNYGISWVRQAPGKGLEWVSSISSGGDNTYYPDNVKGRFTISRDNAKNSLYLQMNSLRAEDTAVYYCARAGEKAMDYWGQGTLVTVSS VL: EIVLTQSPATLSLSPGERATLSCRASQTINNNLHWYQQKPGQAPRLLIKYASQSISGIPARFSGSGSGTDFTLTISSLEPEDFAVYFCQQFSSWPLTFGGGTKVEIKR" resultvalue=0.000981

Now consider a different binder.
Given the binder humanized antibody huC1H1-V1 (antibody, human IgG2, kappa, V domains shown, Human IgG2 / kappa) VH: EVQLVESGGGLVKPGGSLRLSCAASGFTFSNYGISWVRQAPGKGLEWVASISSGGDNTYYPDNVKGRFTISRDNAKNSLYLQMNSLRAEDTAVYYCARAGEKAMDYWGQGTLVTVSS VL: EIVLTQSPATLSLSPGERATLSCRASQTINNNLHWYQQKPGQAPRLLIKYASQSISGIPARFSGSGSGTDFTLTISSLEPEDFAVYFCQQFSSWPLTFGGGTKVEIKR , what is its reported koff?
0.00128

Taken from patent US20240398942A1.
